# ASSAY INFO: Binding affinity to Jack bean Concanavalin A by SPR assay
# Set-up: species or system Canavalia ensiformis
pKd: −log10 of the molar value.

{"columns": ["COMPOUND", "pKd"],
 "data": [
  ["OC[C@H]1OC(O)[C@@H](O)[C@@H](O)[C@@H]1O (stereo partly drawn) [D-MANNOSE]", 3.70]
]}

====

# TGT: Nucleotide-binding oligomerization domain-containing protein 2 (Homo sapiens)
# Sequence (Q9HC29 whole entry, the tested form may be a part): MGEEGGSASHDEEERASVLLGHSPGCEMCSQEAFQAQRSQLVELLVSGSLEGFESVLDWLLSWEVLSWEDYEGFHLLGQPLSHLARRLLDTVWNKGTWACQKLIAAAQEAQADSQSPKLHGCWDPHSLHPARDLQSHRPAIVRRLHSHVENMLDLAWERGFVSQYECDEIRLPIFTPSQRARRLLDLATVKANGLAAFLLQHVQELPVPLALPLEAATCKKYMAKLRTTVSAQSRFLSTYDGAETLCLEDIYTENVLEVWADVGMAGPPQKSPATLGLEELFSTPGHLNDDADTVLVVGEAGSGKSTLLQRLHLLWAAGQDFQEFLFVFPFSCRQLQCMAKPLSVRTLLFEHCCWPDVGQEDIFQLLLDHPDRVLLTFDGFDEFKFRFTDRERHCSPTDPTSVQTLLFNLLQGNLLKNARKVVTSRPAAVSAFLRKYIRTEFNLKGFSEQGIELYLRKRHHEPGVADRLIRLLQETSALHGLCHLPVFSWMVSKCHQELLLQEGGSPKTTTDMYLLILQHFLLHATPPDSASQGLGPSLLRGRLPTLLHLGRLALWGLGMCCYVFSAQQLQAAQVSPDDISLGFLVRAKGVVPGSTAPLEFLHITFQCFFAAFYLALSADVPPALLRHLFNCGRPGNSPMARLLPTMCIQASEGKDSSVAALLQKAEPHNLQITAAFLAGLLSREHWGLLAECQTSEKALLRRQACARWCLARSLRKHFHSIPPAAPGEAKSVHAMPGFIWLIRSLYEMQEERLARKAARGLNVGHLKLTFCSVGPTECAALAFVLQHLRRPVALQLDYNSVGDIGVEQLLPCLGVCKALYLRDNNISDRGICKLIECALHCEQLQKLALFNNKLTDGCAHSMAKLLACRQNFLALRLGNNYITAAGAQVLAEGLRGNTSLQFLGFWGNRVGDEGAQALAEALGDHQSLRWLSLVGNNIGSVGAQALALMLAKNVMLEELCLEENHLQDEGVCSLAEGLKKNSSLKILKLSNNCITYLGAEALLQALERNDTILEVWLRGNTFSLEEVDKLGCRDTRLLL
PROPERTY: Kd

{"columns": ["COMPOUND", "TGT", "VALUE OBSERVED"],
 "data": [
  ["CC(=O)N[C@H]1C(O)O[C@H](CO)[C@@H](O)[C@@H]1O[C@H](C)C(=O)N[C@@H](C)C(=O)N[C@H](CCC(=O)O)C(N)=O (stereo partly specified) [MURAMYL DIPEPTIDE]", "Nucleotide-binding oligomerization domain-containing protein 2 (Homo sapiens)", "200 nM"]
]}

====

# TGT: Nucleotide-binding oligomerization domain-containing protein 1 (Homo sapiens)
# Sequence (Q9Y239 whole entry): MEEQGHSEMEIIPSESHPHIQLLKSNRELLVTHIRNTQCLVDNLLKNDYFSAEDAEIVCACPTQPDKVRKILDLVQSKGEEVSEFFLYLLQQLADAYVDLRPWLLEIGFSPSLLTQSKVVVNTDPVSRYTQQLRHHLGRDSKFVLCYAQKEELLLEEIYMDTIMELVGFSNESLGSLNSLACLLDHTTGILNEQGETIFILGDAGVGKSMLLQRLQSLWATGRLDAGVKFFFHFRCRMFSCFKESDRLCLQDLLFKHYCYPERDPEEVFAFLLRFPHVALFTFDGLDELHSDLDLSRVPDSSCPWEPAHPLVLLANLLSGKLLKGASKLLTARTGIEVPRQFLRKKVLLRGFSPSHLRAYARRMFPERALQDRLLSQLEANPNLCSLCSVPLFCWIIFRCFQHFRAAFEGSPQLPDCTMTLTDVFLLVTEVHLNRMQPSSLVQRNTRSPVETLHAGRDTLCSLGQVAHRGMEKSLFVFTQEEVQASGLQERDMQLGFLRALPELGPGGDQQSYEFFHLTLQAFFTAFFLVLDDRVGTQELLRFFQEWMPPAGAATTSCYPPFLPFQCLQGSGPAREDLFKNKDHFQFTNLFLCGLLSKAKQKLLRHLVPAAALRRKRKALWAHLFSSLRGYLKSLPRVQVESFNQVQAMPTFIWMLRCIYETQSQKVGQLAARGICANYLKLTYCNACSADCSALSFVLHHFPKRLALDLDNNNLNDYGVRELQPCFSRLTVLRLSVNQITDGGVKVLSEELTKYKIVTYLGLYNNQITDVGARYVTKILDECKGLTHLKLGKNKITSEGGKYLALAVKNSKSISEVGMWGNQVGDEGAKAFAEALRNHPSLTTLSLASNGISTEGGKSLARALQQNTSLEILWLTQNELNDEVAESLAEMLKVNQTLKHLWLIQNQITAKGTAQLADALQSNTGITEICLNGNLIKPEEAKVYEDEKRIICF
pKd: −log10 of the molar value.

{"columns": ["SMILES STRUCTURE", "pKd"],
 "data": [
  ["C[C@H](N)C(=O)N[C@H](CCC(=O)N[C@@H](CCC[C@@H](N)C(=O)O)C(=O)O)C(N)=O", 4.46]
]}

Provenance of the data: ChEMBL document CHEMBL4316627
